For each entry below, report its Total number of conformations value.
TESTED SYSTEM: SARS-CoV-2 NSP3 macrodomain (Mac1) (Severe acute respiratory syndrome coronavirus 2)
Assay type: binding
DETAILS: ligand conformations modeled in the crystal structure
Would you mind answering with just the numeric figure?

QUERY: // lookup Total number of conformations | system=SARS-CoV-2 NSP3 macrodomain (Mac1) (Severe acute respiratory syndrome coronavirus 2) | key= NC(=O)C1(O)CCN(c2ncnc3[nH]ccc23)C1 (centres unmarked)
RESULT: 2

QUERY: Which Total number of conformations is reported with SARS-CoV-2 NSP3 macrodomain (Mac1) (Severe acute respiratory syndrome coronavirus 2) for this entry: OC(c1ccccc1)C1CCCN1c1ncnc2[nH]ccc12 (centres unmarked) ?
RESULT: 1

QUERY: # value lookup — system SARS-CoV-2 NSP3 macrodomain (Mac1) (Severe acute respiratory syndrome coronavirus 2), readout Total number of conformations, item OCC1CC2(CCOCC2)CN1c1ncnc2[nH]ccc12 (centres unmarked)
RESULT: 1

QUERY: Request: Total number of conformations, test system SARS-CoV-2 NSP3 macrodomain (Mac1) (Severe acute respiratory syndrome coronavirus 2), entry `CC(C)(O)[C@H]1CCCN1c1ncnc2[nH]ccc12`
RESULT: 1

QUERY: Observed Total number of conformations on SARS-CoV-2 NSP3 macrodomain (Mac1) (Severe acute respiratory syndrome coronavirus 2) for `O=C(O)C(F)(F)F.OCC12CC(CN1c1ncnc3[nH]ccc13)C2` , please.
RESULT: 1

====

TESTED SYSTEM: SARS-CoV-2 NSP3 macrodomain (Mac1) (Severe acute respiratory syndrome coronavirus 2, UniProt P0DTD1)
Format: binding
DETAILS: soak concentration 10 mM, DMSO background map
PARAMETER: PanDDA run, DMSO background map: Modeled

Before answering, review these 5 worked examples.
{"MOLECULE": "Cc1sc2ncnc(Sc3ccccc3C(=O)O)c2c1C [AVI-317]", "RECORDED RESULT": "TRUE"}
{"MOLECULE": "OCC(Cc1ccccc1)Nc1ncnc2[nH]ccc12 (stereo not drawn) [AVI-313]", "RECORDED RESULT": "TRUE"}
{"MOLECULE": "O=C(Nc1ccsc1C(=O)O)c1ccc2c(c1)OCO2 [AVI-316]", "RECORDED RESULT": "TRUE"}
{"MOLECULE": "CC(CNC(=O)c1ccc2c(c1)CCC(=O)N2)C(=O)O (stereo not drawn) [AVI-328]", "RECORDED RESULT": "TRUE"}
{"MOLECULE": "Cc1cc2c(=O)n(CCN3C(=O)c4ccccc4S3(=O)=O)nnc2s1 [AVI-341]", "RECORDED RESULT": "TRUE"}

Now let's try a different one.
QUERY: Return reported PanDDA run, DMSO background map: Modeled; argument: CC1CCN(C(=O)c2ccc3c(c2)nc(CO)n3C)CC1C(=O)O (stereo not drawn) [AVI-348]
RESULT: TRUE

====

TESTED SYSTEM: SARS-CoV-2 NSP3 macrodomain (Mac1) (Severe acute respiratory syndrome coronavirus 2, UniProt P0DTD1)
Assay type: binding
DETAILS: DMSO background map; soak concentration 10 mM
PARAMETER: PanDDA run, DMSO background map: Modeled

{"COMPOUND": "CC1CC(C(=O)O)CCN1C(=O)c1ccc2c(c1)OCC(=O)N2 (stereo not shown) [AVI-303]", "RECORDED RESULT": "TRUE"}
{"COMPOUND": "c1ccc(-n2nnnc2CSc2nnc(NC3CC3)s2)cc1 [AVI-286]", "RECORDED RESULT": "TRUE"}
{"COMPOUND": "Nc1nnc(SCCn2c(=O)oc3ccccc32)s1 [AVI-296]", "RECORDED RESULT": "TRUE"}
{"COMPOUND": "O=C(O)C1CCCN1S(=O)(=O)c1cccc2nsnc12 (stereo not shown) [AVI-2]", "RECORDED RESULT": "TRUE"}

====

TESTED SYSTEM: SARS-CoV-2 NSP3 macrodomain (Mac1) (Severe acute respiratory syndrome coronavirus 2)
Type: binding
Binary label based on Occupancy difference (refined_occupancy - 2*(1-BDC)) with cut-off 0: below gives y, not below gives n.

QUERY: Consider `OC[C@@H]1C[C@H](O)CN1c1ncnc2[nH]ccc12` . Does its Occupancy difference (refined_occupancy - 2*(1-BDC)) lie strictly below 0?
RESULT: n

QUERY: Confirm or reject: Occupancy difference (refined_occupancy - 2*(1-BDC)) of `CCC(CC)(CO)Nc1ncnc2[nH]ccc12` lies strictly below 0
RESULT: n

QUERY: Check if Occupancy difference (refined_occupancy - 2*(1-BDC)) falls below 0 for Cc1ccc(CC(CO)Nc2ncnc3[nH]ccc23)cc1 (stereo not shown) .
RESULT: n

QUERY: Please indicate whether the reported Occupancy difference (refined_occupancy - 2*(1-BDC)) of `O=C(O)C(F)(F)F.OCC1(Nc2ncnc3[nH]ccc23)CCCC1` is strictly below 0.
RESULT: y

QUERY: Just wondering, is Occupancy difference (refined_occupancy - 2*(1-BDC)) of OCC(Cc1ccccn1)Nc1ncnc2[nH]ccc12 (stereo not shown) below 0?
RESULT: n

QUERY: Find out if reported Occupancy difference (refined_occupancy - 2*(1-BDC)) for OCC(Cc1ccccc1)Nc1ncnc2[nH]ccc12 (stereo not shown) is less than 0
RESULT: n

====

Please provide measured Hill slope for the entries that follow.
TESTED SYSTEM: SARS-CoV-2 NSP3 macrodomain (Mac1) (Severe acute respiratory syndrome coronavirus 2, UniProt P0DTD1)
EXPERIMENT DESCRIPTION: biochemical
Format: binding
DETAILS: HTRF binding curve, SARS-CoV-2 Mac1
Give a plain numeric answer without units written out.

QUERY: Query (compound): `OC1(CNc2ncnc3[nH]ccc23)CCC(F)(F)CC1` ; field requested: Hill slope
RESULT: 1.2

QUERY: Please report the recorded Hill slope for OC1CCC(O)(CNc2ncnc3[nH]ccc23)CC1 (stereo not drawn) .
RESULT: 1.3

QUERY: Which Hill slope is listed for OCC(Cc1ccccc1)Nc1ncnc2[nH]ccc12 (stereo not drawn) ?
RESULT: 1.2

QUERY: Which value of Hill slope has been reported for `CC1(C)CCC(O)(CNc2ncnc3[nH]ccc23)CC1` in the records?
RESULT: 1.3

QUERY: Look up Hill slope for this compound: CC(Nc1ncnc2[nH]ccc12)C1(O)CCCCC1 (stereo not drawn)
RESULT: 1.2

QUERY: Need Hill slope of OCC1C=CCCN1c1ncnc2[nH]ccc12 (stereo not drawn) , thanks.
RESULT: 1.2

QUERY: Which Hill slope value belongs to `CCC(CC)(CO)Nc1ncnc2[nH]ccc12` ?
RESULT: 1.3

QUERY: Which Hill slope value is on record for OCC1CC2(CCCC2)CN1c1ncnc2[nH]ccc12 (stereo not drawn) ?
RESULT: 1.1

QUERY: Reported Hill slope for O=C1CCc2cc(C(=O)N3CC(C(=O)O)CCC34CCCC4)c(F)cc2N1 (stereo not drawn) : what is it?
RESULT: 1.5

QUERY: Look up Hill slope: Cc1c[nH]c2ncnc(NCC3(O)CCC(C)CC3)c12 (stereo not drawn)
RESULT: 1.2

QUERY: Field request: Hill slope | item: OCC(Nc1ncnc2[nH]ccc12)C1CC1 (stereo not drawn)
RESULT: 1.2

QUERY: Please report the recorded Hill slope for `CC(C)(CO)Nc1ncnc2[nH]ccc12` .
RESULT: 1.1

QUERY: // lookup Hill slope for `OC[C@@H]1C[C@@H]2CCC[C@@H]2N1c1ncnc2[nH]ccc12`
RESULT: 1.2

QUERY: // query Hill slope value for entry `CC1(C)C[C@@H](CO)N(c2ncnc3[nH]ccc23)C1.O=C(O)C(F)(F)F`
RESULT: 1.1

QUERY: So what's the measured Hill slope for this one? CC(C)(O)C1N(c2ncnc3[nH]ccc23)CCC1(C)C (stereo not drawn)
RESULT: 1.3

QUERY: Fill in: Hill slope of CC(C)(O)C1C2CCCCC2CN1c1ncnc2[nH]ccc12 (stereo not drawn) is ___
RESULT: 1.3

QUERY: For the compound shown here, `Cc1c[nH]c2ncnc(NCC3(O)CCC(C)(C)CC3)c12` , give the reported Hill slope.
RESULT: 1.3

QUERY: Requested read-out: Hill slope. Entry: CC1CCCC(O)(CNc2ncnc3[nH]ccc23)C1 (stereo not drawn)
RESULT: 1.0

====

So I've got a bunch of compounds here, and I need their 2*(1-BDC) (%) values.
TESTED SYSTEM: SARS-CoV-2 NSP3 macrodomain (Mac1) (Severe acute respiratory syndrome coronavirus 2, UniProt P0DTD1)
Format: binding
DETAILS: occupancy estimate from PanDDA
A number alone suffices; assume %.

QUERY: Requested field: 2*(1-BDC) (%). Item: CC(c1ccccc1)C(CO)Nc1ncnc2[nH]ccc12 (stereo not drawn)
RESULT: 28

QUERY: Recorded 2*(1-BDC) (%) of `OC1(CNc2ncnc3[nH]ccc23)CCCCC1` , please.
RESULT: 44

QUERY: What does the data say about its 2*(1-BDC) (%)? Entry: Cc1ccc(CC(CO)Nc2ncnc3[nH]ccc23)cc1C (stereo not drawn)
RESULT: 30
